Taken from ChEMBL document CHEMBL3112554.

Measured Ratio Ki, listed per entry for reference.
Target: Adenosine receptors; A1 & A3 (Homo sapiens) (UniProt P30542+P0DMS8)
Sequence (P0DMS8 whole entry, looked up): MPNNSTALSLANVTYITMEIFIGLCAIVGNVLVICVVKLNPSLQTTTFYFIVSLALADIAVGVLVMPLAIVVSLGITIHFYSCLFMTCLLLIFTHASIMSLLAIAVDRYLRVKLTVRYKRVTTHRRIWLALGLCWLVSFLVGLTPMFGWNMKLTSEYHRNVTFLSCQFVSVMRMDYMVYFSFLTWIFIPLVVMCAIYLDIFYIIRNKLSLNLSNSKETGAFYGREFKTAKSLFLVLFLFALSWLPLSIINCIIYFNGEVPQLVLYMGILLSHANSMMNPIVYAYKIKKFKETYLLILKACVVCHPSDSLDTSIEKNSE
Sequence (P30542 whole entry, looked up): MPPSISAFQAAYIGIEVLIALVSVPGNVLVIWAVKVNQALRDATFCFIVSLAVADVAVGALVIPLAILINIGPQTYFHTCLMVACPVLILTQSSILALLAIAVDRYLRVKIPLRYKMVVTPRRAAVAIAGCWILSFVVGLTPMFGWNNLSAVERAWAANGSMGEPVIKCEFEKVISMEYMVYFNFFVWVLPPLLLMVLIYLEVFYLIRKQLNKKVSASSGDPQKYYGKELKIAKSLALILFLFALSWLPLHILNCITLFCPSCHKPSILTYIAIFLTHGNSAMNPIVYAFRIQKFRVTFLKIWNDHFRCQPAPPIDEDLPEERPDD
Assay: Selectivity ratio of Ki for human adenosine A1 receptor to Ki for human adenosine A3 receptor
Output: the number by itself.

Q) Return value of Ratio Ki for input CC(C)(C)Cn1cc2c(Cl)nc(NC(=O)c3ccc(F)cc3)nc2n1 , no commentary.
A) 2.7

Q) Return value of Ratio Ki for input CC(C)(C)Cn1cc2c(Cl)nc(NC(=O)c3ccccc3)nc2n1 , no commentary.
A) 0.3

Q) Return value of Ratio Ki for input Cn1cc2c(Cl)nc(NC(=O)Cc3ccccc3)nc2n1 , no commentary.
A) 2.4

----------
Organism: Homo sapiens
Test: Selectivity ratio of Ki for human adenosine A2A receptor to Ki for human adenosine A3 receptor
Binned Ratio Ki; ranges: lowest: < 0.3; middle: ≥ 0.3 and < 1; highest: ≥ 1

Completed entries (count: 4):
Cn1cc2c(Cl)nc(NC(=O)Cc3ccccc3)nc2n1 :: highest
O=C(Cc1ccccc1)Nc1nc(Cl)c2cn(CCc3ccccc3)nc2n1 :: middle
Cn1cc2c(Cl)nc(NC(=O)c3ccc(C(F)(F)F)cc3)nc2n1 :: middle
Cc1ccc(C(=O)Nc2nc(Cl)c3cn(C)nc3n2)cc1 :: middle

Q) Input CC(C)(C)Cn1cc2c(Cl)nc(NC(=O)Cc3ccccc3)nc2n1 ; output its category
A) highest

Q) Input CC(C)n1cc2c(Cl)nc(NC(=O)c3ccc(C(F)(F)F)cc3)nc2n1 ; output its category
A) lowest

Q) Input CCOC(=O)c1nc(NC(=O)c2ccc(C(F)(F)F)cc2)nc2nn(CC(C)(C)C)cc12 ; output its category
A) highest

----------
Molecular target: Adenosine receptor A2a (Homo sapiens, UniProt P29274)
Sequence (P29274 whole entry): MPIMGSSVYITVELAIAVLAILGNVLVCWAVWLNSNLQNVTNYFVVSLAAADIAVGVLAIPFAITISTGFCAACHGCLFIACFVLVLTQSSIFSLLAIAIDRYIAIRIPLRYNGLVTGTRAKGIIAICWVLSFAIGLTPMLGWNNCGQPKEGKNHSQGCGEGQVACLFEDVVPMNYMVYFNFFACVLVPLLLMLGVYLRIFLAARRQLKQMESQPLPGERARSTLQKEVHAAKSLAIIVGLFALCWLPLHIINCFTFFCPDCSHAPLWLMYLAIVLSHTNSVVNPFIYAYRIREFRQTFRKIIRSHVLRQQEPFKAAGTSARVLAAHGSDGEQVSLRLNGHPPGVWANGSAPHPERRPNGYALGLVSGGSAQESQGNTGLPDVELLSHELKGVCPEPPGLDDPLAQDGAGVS
Ki less than 3 µM is yes; Ki greater than or equal to 3 µM is no.

CC(C)(C)Cn1cc2c(Cl)nc(NC(=O)c3ccc(F)cc3)nc2n1 :: yes

Lab note: next compound to report on.
Q) Does the reported Ki of CC(C)n1cc2c(Cl)nc(NC(=O)c3ccc(F)cc3)nc2n1 stay below 3 µM?
A) yes

----------
Target: Adenosine receptors; A1 & A3 (Homo sapiens) (UniProt P30542+P0DMS8)
Experiment: Selectivity ratio of Ki for human adenosine A1 receptor to Ki for human adenosine A3 receptor
recordedEndpoint: Ratio Ki
Output: the number by itself.

Recorded results for 4 compounds are shown here.
CC(C)n1cc2c(Cl)nc(NC(=O)c3ccc(C(F)(F)F)cc3)nc2n1 :: 1.3
O=C(Cc1ccccc1)Nc1nc(Cl)c2cn(CCc3ccccc3)nc2n1 :: 0.5
Cc1ccc(C(=O)Nc2nc(Cl)c3cn(CCc4ccccc4)nc3n2)cc1 :: 7.2
Cc1ccc(C(=O)Nc2nc(Cl)c3cn(CC(C)(C)C)nc3n2)cc1 :: 2.2

// below: Ratio Ki requested for another compound
Q) Return value of Ratio Ki for input CC(C)n1cc2c(Cl)nc(NC(=O)Cc3ccccc3)nc2n1 , no commentary.
A) 0.07

----------
Organism: Homo sapiens
Experiment: Selectivity ratio of Ki for human adenosine A2A receptor to Ki for human adenosine A3 receptor
Measured Ratio Ki, listed per entry for reference.
Output: the number by itself.

Recorded results for 4 molecules are shown here.
CC(C)n1cc2c(Cl)nc(N)nc2n1 :: 0.03
CC(C)n1cc2c(Cl)nc(NC(=O)c3ccccc3)nc2n1 :: 0.3
Cn1cc2c(Cl)nc(N(C(=O)c3ccccc3)C(=O)c3ccccc3)nc2n1 :: 2.4
CC(C)(C)Cn1cc2c(Cl)nc(NC(=O)c3ccc(F)cc3)nc2n1 :: 0.3

// below: Ratio Ki requested for another molecule
Q) Return value of Ratio Ki for input CC(C)n1cc2c(Cl)nc(NC(=O)Cc3ccccc3)nc2n1 , no commentary.
A) 0.17
